tested on: Chordin-like protein 2 (CHRDL2); assay: CHRDL2 small-molecule binders, primary screen, biochemical, small-molecule microarray, 635 nm fluorescence (AID 1126); conditions: small-molecule microarray binding, fluorescence 635 nm; higher = more signal;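 also: printed compound slides probed with Chrdl2 protein at 4 µg/mL for 1 h at 4 C; score merges 667 nm emission intensity with signal to noise over three replicate slides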
Hi, to clarify the labels: true (1) covers composite z-score from 0.3 upward, false (0) covers anything below 0.3.

[
  {
    "Compound": "C=C(COC)/C(=C/C[C@H](OC(=O)c1ccncc1)c1ccc(OCCO)cc1)c1cc(C(=O)OC)ccc1OC",
    "Category label": "false (0)"
  },
  {
    "Compound": "COc1cc2c(cc1O)C(C1CC1)N(Cc1ccc([N+](=O)[O-])o1)CC2 (stereo unspecified)",
    "Category label": "false (0)"
  },
  {
    "Compound": "CCC[C@@H]1[C@@H](Sc2ccccc2)[C@@H](C(=O)O)[C@H](c2ccc(C)cc2)N1S(=O)(=O)c1ccc(C)cc1",
    "Category label": "false (0)"
  },
  {
    "Compound": "NC(=O)N1C(=O)C2C(C1=O)C1C=C(CCCO)C2C(c2ccc(CN3CCCC3)cc2)N1Cc1cccc(OC(F)(F)F)c1 (stereo unspecified)",
    "Category label": "true (1)"
  },
  {
    "Compound": "COc1cc2c(cc1O)C(c1ccc(CN3CCCC3)cc1)N(Cc1cccc(OC(F)(F)F)c1)CC2 (stereo unspecified)",
    "Category label": "true (1)"
  },
  {
    "Compound": "CCOC(=O)C[C@H]1[C@H](OC(=O)c2cc3ccccc3oc2=O)[C@@H](NC(=O)C2CCCCC2)c2cc(OCCCO)ccc2N1C(=O)Cc1ccc(OC)cc1",
    "Category label": "true (1)"
  }
]

Data provenance is PubChem BioAssay.
